- ASSAY INFO: thallium flux inhibition in non-induced cells, primary screen, counter-screen for KCNK3 inhibitor project, cell-based, non-induced KCNK3 line, FluxOR thallium, triplicate (AID 651747);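 note: host cells are CHO cells without KCNK3 induction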
- EXPERIMENTAL CONTEXT: non-induced KCNK3 parental cells, at 10 µM
The whole screen tested about 2,400 compounds, of which about 950 (40%) were called active.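 Rule for the calls: active = thallium flux ratio, averaged over three wells, more than 5 SD below the buffer control mean; inactive = the rest.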 The list is a sample of the results.
A correct response names exactly one class from active, inactive

COc1cc(C(=O)Nc2oc(-c3ccccc3)c(-c3ccccc3)c2C#N)cc(OC)c1OC; inactive
O=C(N/N=C/c1sc(N2CCCCC2)nc1-c1cccs1)c1cccnc1; active
CC(=O)N1CCCc2cc(S(=O)(=O)N3CCCC(C(=O)N4CCN(c5cccc(Cl)c5)CC4)C3)ccc21 (configuration not stated); inactive
COc1cccc(/C=N/Nc2cc(C)nc(-c3ccccc3O)n2)c1O; active
CC(C)c1cc(C(=O)N/N=C/c2ccoc2)c(O)c(C(C)C)c1; active
C=CCc1cc(S(=O)(=O)c2ccc(O)c(CC=C)c2)ccc1O; active

Task: What classification did CC(C)CCNC(=O)C(C)N(C(=O)Cn1nnc(-c2ccc(F)cc2)n1)C1CCCC1 (configuration not stated) end up with in this test?
Result: inactive
